Each recorded value in this set is attributed to paper PMC4745898.

# system: TRPA1 (Rattus norvegicus)
# Sequence (Q6RI86 whole entry): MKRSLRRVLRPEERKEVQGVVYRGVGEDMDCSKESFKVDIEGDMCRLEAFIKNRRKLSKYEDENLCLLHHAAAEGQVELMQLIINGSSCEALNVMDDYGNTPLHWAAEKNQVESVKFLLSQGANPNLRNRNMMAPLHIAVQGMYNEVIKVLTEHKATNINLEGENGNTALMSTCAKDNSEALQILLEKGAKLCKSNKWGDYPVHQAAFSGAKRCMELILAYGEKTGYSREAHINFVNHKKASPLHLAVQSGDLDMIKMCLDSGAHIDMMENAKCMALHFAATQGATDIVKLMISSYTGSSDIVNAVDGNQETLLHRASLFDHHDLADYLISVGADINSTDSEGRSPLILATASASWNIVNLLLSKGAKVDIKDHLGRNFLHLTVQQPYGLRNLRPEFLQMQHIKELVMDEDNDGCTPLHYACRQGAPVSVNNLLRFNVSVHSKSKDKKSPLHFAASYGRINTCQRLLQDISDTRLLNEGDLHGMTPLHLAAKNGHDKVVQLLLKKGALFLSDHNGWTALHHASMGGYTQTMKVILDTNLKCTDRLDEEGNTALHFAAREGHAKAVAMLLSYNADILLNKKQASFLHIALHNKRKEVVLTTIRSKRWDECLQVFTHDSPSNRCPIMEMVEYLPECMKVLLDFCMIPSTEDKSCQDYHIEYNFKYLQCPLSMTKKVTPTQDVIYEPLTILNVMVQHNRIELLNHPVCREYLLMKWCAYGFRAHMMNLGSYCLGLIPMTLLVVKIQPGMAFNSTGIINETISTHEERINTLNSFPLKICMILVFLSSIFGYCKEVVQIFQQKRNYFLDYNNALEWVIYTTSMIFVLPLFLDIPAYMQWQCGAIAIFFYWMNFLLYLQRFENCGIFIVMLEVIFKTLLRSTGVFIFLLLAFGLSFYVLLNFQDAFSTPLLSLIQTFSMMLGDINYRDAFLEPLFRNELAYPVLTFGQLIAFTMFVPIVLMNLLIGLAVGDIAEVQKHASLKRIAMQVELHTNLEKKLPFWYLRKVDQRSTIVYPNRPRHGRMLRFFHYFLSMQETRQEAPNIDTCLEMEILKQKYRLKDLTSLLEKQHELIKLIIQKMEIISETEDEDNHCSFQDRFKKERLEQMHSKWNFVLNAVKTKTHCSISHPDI
# assay-procedure: TIRF Ca2+ imaging of TRPA1 sparklets in cerebral artery endothelial cells
endpoint-label: EC50

The value of EC50 measured for the molecule CCCCCC(O)C=CC=O (stereo not shown) turned out to be 64.8 nM
